Test system: MS2 coat protein
Assay: apparent Kd, MS2 coat protein; higher = weaker binding; RNA-MaP array; FMN 200 µM where present
Conditions: designed as: OFF switch for flavin mononucleotide; no ligand
# label = y if apparent Kd >= 30 nM else n

Would you say GUGGUGCAUAUACGUGGAUGUACAUGAGGAUCACCCAUGUAAGAGGAUAUGCGGAUACUAGCUCAGCAGAAGGCUUACAAAUGC shows apparent Kd at minimum 30 nM?
n

Would you say CUUCAAGAUGUGAGGAUAUCGCCGAUGAGGAUAGUUGAGAAGGUACAUGAGGAUCACCCAUGUAGGCUGGGUUU shows apparent Kd at minimum 30 nM?
y

---
Would you say AAGUCAGCAGGAUAUGCGAUGUUGUGCUAGAUAGCGGGACCACAUGAGGAUCACCCAUGUAGAAGGGCUGGCUA shows apparent Kd at minimum 30 nM?
y

Would you say UUCUUACAUGAGGAUCACCCAUGUCAGGAUAUCUCCGCACUGCGCUUGCGCAGUGCAUAGAGAAGGGACAGGCU shows apparent Kd at minimum 30 nM?
y

Would you say GCUUAGUAAGGAUAUUCACCGAUAAACAUGAGGAUCACCCAUGUCAUGUACCGUCGCCCGGAAGAAGGUACAGGCU shows apparent Kd at minimum 30 nM?
y

Would you say UCGACGAAAGUCGAACGAUGUAGCAGAAGGACAUGAGGAUCACCCAUGUCAGCUGUAACAGCCAUGUAGGAUAUGCUACAUCGC shows apparent Kd at minimum 30 nM?
n

Would you say UGUCUCAGAGGAUAUACAGGUGUAGAUCCUUUAGACCCUUGACAUGAGGAUCACCCAUGUAGAAGGCUGCAGAC shows apparent Kd at minimum 30 nM?
y

Would you say ACAUGAGGAUCACCCAUGUAACAUGUGAAUUAAUUCUUUAACAGAAGGCGAAUAUAUAACAUUGUCGAGGAUAUGUACUUAUGU shows apparent Kd at minimum 30 nM?
n

Would you say UUUACGAAAGUCGAACGAUGUAGCAGAAGGACAUGAGGAUCACCCAUGUCAGCUGUAACAGCCAUGUAGGAUAUGCUACAUAAA shows apparent Kd at minimum 30 nM?
n

Would you say AAGUAGGCAGGAUAUACAUGAGGAUCACCCAUGUGCCUAUACAAGGUAAUCUUGGGAGGUAGAAGGGCCUACAA shows apparent Kd at minimum 30 nM?
y

* * *

Tested on: MS2 coat protein
Assay: apparent Kd, MS2 coat protein; higher = weaker binding; RNA-MaP array; theophylline 2 mM where present
Conditions: designed as: OFF switch for theophylline; no ligand
Catalogue of apparent Kd readings, one per entry.
Express the result in µM but write the number alone.

Measured apparent Kd of AGACAUGAGGAUCACCCAUGUAGUACGGAUACCAGAUCCAGAUGUAUCCCUUGGCAGCUGUGGUACAGCGUUACAUCGCUCCUAG : 0.0151

Measured apparent Kd of GCGAUACGUACUGAUACCAGAGACAUGAGGAUCACCCAUGUCCCAUGAUCAUACCUCAGACUCCCUUGGCAGCAGGAUAAGUGAG : 0.0112

Measured apparent Kd of CUAGGAAACUAGUAAGGGUGGUAUAGAGAUACCAGUACAGAAAUGUACCCUUGGCAGCUCACUGCAACAUGAGGAUCACCCAUGU : 0.0323

Read the next record carefully.
Measured apparent Kd of UGUUUUGUGAUGGAUACCAGCAGAGAAAACGUUUAUCCUAACAUGAGGAUCACCCAUGUAUGCCCUUGGCAGCUGUUGUGGGAUA : 0.0297
